Each entry below lists one item and its recorded Results: peptide binding to mAb 1H11, 1 μg synthetic peptide = X nmole BCE value.
- Test system: mAb 1H11
- assay.explanation: OSTEOMARK competitive immunoassay testing apparent affinity of synthetic peptides for mAb 1H11
- Format: binding
- setup.conditions: nanomoles Bone Collagen Equivalents equivalent to 1 μg peptide; back fit into OSTEOMARK standard curve; values between 0.5 and 1 OD averaged
Non-standard residues stand in square brackets, D forms with d. Residues, ends and D or L forms follow the SMILES beside them. Aad = N[C@@H](CCCC(=O)O)C(=O)O; pGlu = O=C1CC[C@@H](C(=O)O)N1
All answers are understood in nmole BCE, so give the number only.

# compound, recorded.result
data = [
    ("CC(C)[C@H](NC(=O)CNC(=O)[C@H](CCCC(=O)O)NC(=O)CNC(=O)[C@H](CC(=O)O)NC(=O)[C@H](Cc1ccc(O)cc1)NC(=O)[C@@H]1CCC(=O)N1)C(=O)NCC(=O)O [SEQ ID NO:34, J Y D G X^4 G V G] ([pGlu]YDG[Aad]GVG-OH)", 750),
]

Lookup: Item under review: CSCC[C@H](NC(=O)CNC(=O)[C@H](CC(=O)O)NC(=O)[C@H](Cc1ccc(O)cc1)NC(=O)[C@@H]1CCC(=O)N1)C(=O)NCC(=O)N[C@H](C(=O)NCC(=O)O)C(C)C [SEQ ID NO:11, J Y D G M G V G] ([pGlu]YDGMGVG-OH) . Reported Results: peptide binding to mAb 1H11, 1 μg synthetic peptide = X nmole BCE?
Found: 183

Lookup: Item under review: CC(C)[C@H](NC(=O)CNC(=O)[C@H](Cc1ccccc1)NC(=O)CNC(=O)[C@H](CC(=O)O)NC(=O)[C@H](Cc1ccc(O)cc1)NC(=O)[C@@H]1CCC(=O)N1)C(=O)NCC(=O)O [SEQ ID NO:5, J Y D G F G V G] ([pGlu]YDGFGVG-OH) . Reported Results: peptide binding to mAb 1H11, 1 μg synthetic peptide = X nmole BCE?
Found: 365

Lookup: Item under review: CC(C)[C@H](NC(=O)CNC(=O)[C@H](CCC(=O)O)NC(=O)CNC(=O)[C@H](CC(=O)O)NC(=O)[C@H](Cc1ccccc1)NC(=O)[C@@H]1CCC(=O)N1)C(=O)NCC(=O)O [SEQ ID NO:36, J F D G E G V G] ([pGlu]FDGEGVG-OH) . Reported Results: peptide binding to mAb 1H11, 1 μg synthetic peptide = X nmole BCE?
Found: 14
